B1: MLL5 (parent)
chain: HDDGYMICCDKCSVWQHIDCMGID

Variants of: B1
Assay: protein stability index of a GFP-peptide fusion (GPS, HEK-293T) (PSI 1-6); higher = more stable;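 note: lentivirally expressed fusions sorted by FACS into six bins by GFP to DsRed ratio, PSI derived from sequencing read proportions per bin multiplied by bin number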
Conditions: c terminus: a fixed tail appended
Tag: Y if measured protein stability index is not below 2, N if it is.

Record excerpt, results attached:
Y5I = Y
M6E = Y
D24S = Y
D19T = Y
K11R = N

[Q] Form field: protein stability index at least 2? Entry: I23F
[A] Y

[Q] And for K11M ?
[A] N

[Q] Item: H1N
[A] Y

[Q] How about this variant: K11T
[A] N

[Q] # iterate: D3A
[A] Y

[Q] Then I23K ?
[A] Y

[Q] Cool, now C8K
[A] Y

[Q] Follow-up entry: Q16D
[A] Y

[Q] Record: H17S
[A] Y

[Q] Would you mind doing H1E as well?
[A] Y
